Measured Target: SP_0166 (Streptococcus pneumoniae, UniProt A0A0H2UNA7)
Construct: full length, 368 residues, 42,757 Da; pET-28a(+) BamHI/XhoI, C-terminal 6xHis tag kept; expressed in E. coli BL21(DE3)
Sequence (A0A0H2UNA7 entry or part of it): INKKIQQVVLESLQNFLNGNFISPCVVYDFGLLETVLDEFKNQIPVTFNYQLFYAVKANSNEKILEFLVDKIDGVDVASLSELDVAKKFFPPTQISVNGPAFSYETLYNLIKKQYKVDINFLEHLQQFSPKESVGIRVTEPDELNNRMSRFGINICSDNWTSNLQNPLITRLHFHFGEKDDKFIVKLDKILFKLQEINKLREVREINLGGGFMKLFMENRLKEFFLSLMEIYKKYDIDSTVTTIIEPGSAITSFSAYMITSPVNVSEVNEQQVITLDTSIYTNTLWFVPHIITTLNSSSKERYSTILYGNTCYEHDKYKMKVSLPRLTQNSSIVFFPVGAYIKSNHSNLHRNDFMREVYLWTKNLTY
Assay Comment: LC-MS/MS of agmatine formed from arginine
Format: biochemical
Measurement Parameters: read-out: DFMA IC50
Test Readout: IC50 (µM)
Use µM as the unit, but write only the number.

Item: N=C(N)NCCCC(N)(C(=O)O)C(F)F (stereo not shown) [DFMA] | System: SP_0166 (Streptococcus pneumoniae, UniProt A0A0H2UNA7) | IC50: 21.6

* * *

Measured Target: SP_0166 (Streptococcus pneumoniae)
Construct: full length, 368 residues, 42,757 Da; pET-28a(+) BamHI/XhoI, C-terminal 6xHis tag kept; expressed in E. coli BL21(DE3)
Assay Comment: LC-MS/MS of agmatine formed from arginine
Format: biochemical
Measurement Parameters: read-out: DFMO IC50
Test Readout: IC50
Record the result as a number with its unit.

Lab note: measured IC50 of NCCCC(N)(C(=O)O)C(F)F (stereo not shown) [DFMO] was 27 mM
